Catalogue of ΔG^0 (Gibbs free energy of interaction) values
- target: Tg244440 (Toxoplasma gondii)
- Sequence (A0A125YNC9 1-462): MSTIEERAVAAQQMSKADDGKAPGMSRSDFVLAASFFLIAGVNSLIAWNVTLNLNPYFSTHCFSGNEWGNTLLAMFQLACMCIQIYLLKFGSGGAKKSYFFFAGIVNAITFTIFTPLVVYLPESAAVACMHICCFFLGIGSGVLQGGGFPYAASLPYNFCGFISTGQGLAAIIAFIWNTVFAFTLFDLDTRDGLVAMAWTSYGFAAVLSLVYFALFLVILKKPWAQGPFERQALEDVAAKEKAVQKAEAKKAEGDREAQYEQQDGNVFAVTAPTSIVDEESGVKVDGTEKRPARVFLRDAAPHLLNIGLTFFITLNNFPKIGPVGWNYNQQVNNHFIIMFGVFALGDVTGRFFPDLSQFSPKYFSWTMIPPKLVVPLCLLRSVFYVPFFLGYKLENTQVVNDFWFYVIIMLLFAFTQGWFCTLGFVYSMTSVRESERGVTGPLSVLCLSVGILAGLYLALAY
- procedure text: [3H]-guanine uptake and its inhibition in T. brucei TbNB-KO procyclics expressing Tg244440 (clone F5)
- Assay type: cell-based
- measurement setup: calculated from Km or Ki, ΔG0 = −RTln(Ki)
Give the value, in units of kcal/mol, as a plain number.

OC[C@@H]1CC[C@H](n2cnc3c(O)ncnc32)O1 [2′,3′-dideoxyinosine] : -4.3

Requested field: ΔG^0 (Gibbs free energy of interaction). Item: O=c1[nH]cnc2nc[nH]c12 [Hypoxanthine]
-7.7

Given the compound OC[C@H]1O[C@@H](n2cnc3c(O)ncnc32)C[C@@H]1O [2′-deoxyinosine] , what is its reported ΔG^0 (Gibbs free energy of interaction)?
-5.35

Any idea what ΔG^0 (Gibbs free energy of interaction) was measured for OC[C@@H]1C[C@@H](O)[C@H](n2cnc3c(O)ncnc32)O1 [3′-deoxyinosine] ?
-5.45

// lookup ΔG^0 (Gibbs free energy of interaction) for Oc1ncnc2[nH]ncc12 [Allopurinol]
-5.09

Fill in: ΔG^0 (Gibbs free energy of interaction) of Nc1nc2c(ncn2[C@@H]2O[C@H](CO)[C@@H](O)[C@H]2O)c(=O)[nH]1 [Guanosine] is ___
-7.48

Returns the measured ΔG^0 (Gibbs free energy of interaction) for the input compound. Input: C[C@H]1O[C@@H](n2cnc3c(N)ncnc32)[C@H](O)[C@@H]1O [5′-deoxyadenosine]
-5.54
